Source of measurements: patent US20080044360A1

Target: T1, human collagen type I, acid soluble, extracted from placenta (Sigma C7774) (human, UniProt P02452 162-1218; P08123 80-1119)
T1 construct: tissue extract, gelled and dried in wells; also called dried human collagen; h-Collagen
T1 sequence (P02452 162-1218 limits assumed, chain 1 of 2): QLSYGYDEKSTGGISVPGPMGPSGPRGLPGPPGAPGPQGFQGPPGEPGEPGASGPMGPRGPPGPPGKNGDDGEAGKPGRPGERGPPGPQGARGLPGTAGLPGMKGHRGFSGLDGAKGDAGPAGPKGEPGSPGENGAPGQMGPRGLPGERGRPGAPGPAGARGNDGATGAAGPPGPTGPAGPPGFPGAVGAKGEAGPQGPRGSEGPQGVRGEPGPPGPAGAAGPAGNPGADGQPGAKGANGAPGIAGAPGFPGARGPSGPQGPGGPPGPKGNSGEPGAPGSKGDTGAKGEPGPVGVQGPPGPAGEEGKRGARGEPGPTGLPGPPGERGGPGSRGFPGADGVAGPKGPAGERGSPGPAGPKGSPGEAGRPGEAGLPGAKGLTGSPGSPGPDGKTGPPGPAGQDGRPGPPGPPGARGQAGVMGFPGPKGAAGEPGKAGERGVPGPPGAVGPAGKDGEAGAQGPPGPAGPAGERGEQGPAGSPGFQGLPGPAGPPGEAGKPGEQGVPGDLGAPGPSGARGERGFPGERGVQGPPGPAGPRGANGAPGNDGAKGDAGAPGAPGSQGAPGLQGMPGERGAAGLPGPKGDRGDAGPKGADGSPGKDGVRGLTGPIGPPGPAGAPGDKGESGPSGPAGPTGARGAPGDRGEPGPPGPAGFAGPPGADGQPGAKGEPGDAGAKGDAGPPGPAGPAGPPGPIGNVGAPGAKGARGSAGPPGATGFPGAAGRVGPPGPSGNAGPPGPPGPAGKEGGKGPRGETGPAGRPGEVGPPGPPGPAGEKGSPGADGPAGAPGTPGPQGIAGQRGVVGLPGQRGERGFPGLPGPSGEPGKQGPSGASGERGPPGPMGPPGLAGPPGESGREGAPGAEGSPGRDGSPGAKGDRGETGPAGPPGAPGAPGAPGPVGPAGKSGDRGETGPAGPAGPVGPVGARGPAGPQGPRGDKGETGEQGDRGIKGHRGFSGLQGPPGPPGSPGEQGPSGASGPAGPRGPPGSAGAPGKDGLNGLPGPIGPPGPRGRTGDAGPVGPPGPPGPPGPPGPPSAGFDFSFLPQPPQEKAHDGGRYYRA
T1 sequence (P08123 80-1119 limits assumed, chain 2 of 2): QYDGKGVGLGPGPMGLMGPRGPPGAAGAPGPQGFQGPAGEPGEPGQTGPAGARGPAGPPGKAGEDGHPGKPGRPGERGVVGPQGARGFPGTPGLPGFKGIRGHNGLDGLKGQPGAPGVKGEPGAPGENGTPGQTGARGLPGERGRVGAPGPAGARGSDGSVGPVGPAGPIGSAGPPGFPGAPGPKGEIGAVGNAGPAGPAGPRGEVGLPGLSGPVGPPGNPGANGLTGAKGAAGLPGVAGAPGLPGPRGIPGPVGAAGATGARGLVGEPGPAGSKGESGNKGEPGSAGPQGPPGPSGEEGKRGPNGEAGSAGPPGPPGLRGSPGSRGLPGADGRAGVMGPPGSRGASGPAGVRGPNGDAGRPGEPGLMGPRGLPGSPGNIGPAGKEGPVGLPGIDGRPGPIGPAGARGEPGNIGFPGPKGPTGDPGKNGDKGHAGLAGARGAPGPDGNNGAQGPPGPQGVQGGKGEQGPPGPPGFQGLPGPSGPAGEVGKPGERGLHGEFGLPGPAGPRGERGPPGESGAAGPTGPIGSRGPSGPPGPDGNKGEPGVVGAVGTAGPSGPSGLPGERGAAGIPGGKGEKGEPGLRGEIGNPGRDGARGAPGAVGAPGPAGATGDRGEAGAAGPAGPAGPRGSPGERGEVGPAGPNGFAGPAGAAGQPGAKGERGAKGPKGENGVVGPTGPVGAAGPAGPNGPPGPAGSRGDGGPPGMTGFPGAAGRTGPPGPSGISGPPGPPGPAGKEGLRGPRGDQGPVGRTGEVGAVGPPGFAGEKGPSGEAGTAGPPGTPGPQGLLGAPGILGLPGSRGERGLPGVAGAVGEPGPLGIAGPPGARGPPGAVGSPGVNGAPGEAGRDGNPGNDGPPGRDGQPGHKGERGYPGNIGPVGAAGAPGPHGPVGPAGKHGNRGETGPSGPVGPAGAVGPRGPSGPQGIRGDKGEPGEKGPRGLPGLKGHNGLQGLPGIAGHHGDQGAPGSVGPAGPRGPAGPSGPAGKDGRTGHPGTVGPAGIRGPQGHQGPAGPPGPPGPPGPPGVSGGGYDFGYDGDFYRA
Experiment: dried collagen assay
Protocol: An additional 90 μL is reserved in a HPLC glass vial as a measure of the total concentration.
Bridge positions count the residues as written; N and C are the ends. Ends that are not written are not given here.
Listing of recorded % bound by entry.
API: value field is a number in %; no unit string.

Some solved entries appear below for comparison.
Binder	Readout Units	Experimental Value
DWTCVGDHKTWKCNFH (disulfide 4-13 (inferred), cyclic, disulfide) [SEQ ID NO 21]	%	57
GQWTCSGDEYTWHCNYA (disulfide 5-14 (inferred); not fully specified (C-terminus), cyclic, disulfide) [SEQ ID NO 151]	%	87
KWHCELDSHMEWSCSGH (disulfide 4-14 (inferred), cyclic, disulfide) [SEQ ID NO 89]	%	1

Query: # lookup: % bound of WWTCHMTWSGQWDSCKWH (disulfide 4-15 (inferred), cyclic, disulfide) [SEQ ID NO 101]
Response: 56

Query: # lookup: % bound of DWTCSGDEYYWHCNYE (disulfide 4-13 (inferred); not fully specified (C-terminus), cyclic, disulfide) [SEQ ID NO 16]
Response: 83
